Species on record: Rattus norvegicus
Assay protocol: Open TG-GATES - Regimen: Single
Type: toxicity, organism-based, Sprague-Dawley
Set-up: regimen Single, gender Male, age 6 weeks
Details: in vivo, po, 0 mg/kg, 24 h, tissue Blood, route gavage, dose level Control
Parameter: WBC. Scope: all listed entries.

Some solved cases for reference:
{"columns": ["Molecule", "Meas value"],
 "data": [
  ["CCN(CC)N=O", "85.1 x10_2/uL"],
  ["CC(C)Cc1ccc(C(C)C(=O)O)cc1 (configuration not stated)", "117.7 x10_2/uL"],
  ["CC(=O)Nc1ccc2c(c1)Cc1ccccc1-2", "101.1 x10_2/uL"],
  ["CC(=O)N1CCN(c2ccc(OCC3COC(Cn4ccnc4)(c4ccc(Cl)cc4Cl)O3)cc2)CC1 (configuration not stated)", "70.3 x10_2/uL"],
  ["CC(CCc1ccccc1)NCC(O)c1ccc(O)c(C(N)=O)c1 (configuration not stated)", "78.3 x10_2/uL"]
]}

Kindly note the recorded WBC for O=C(O)COc1nn(Cc2ccccc2)c2ccccc12 , which is 103.2 x10_2/uL

Kindly note the recorded WBC for CC[C@@H](CO)NCCN[C@@H](CC)CO , which is 99.5 x10_2/uL

----------
Species: Rattus norvegicus
Assay protocol: Open TG-GATES - Regimen: Single
Format: toxicity, organism-based, Sprague-Dawley
Set-up: regimen Single, gender Male, age 6 weeks
Details: in vivo, po, 0 mg/kg, 6 h, tissue Plasma, route gavage, dose level Control
Parameter: ALP. Scope: all listed entries.
Give the value, in units of IU/L, as a plain number.

{"columns": ["Compound", "ALP, IU/L"],
 "data": [
  ["CC(C)Cc1ccc(C(C)C(=O)O)cc1 (configuration not stated) [IBUPROFEN]", 1383.4]
]}

Kindly note the recorded ALP for CC(=O)N1CCN(c2ccc(OCC3COC(Cn4ccnc4)(c4ccc(Cl)cc4Cl)O3)cc2)CC1 (configuration not stated) [KETOCONAZOLE] , which is 1433

Kindly note the recorded ALP for CC(=O)Nc1ccc2c(c1)Cc1ccccc1-2 [2-ACETYLAMINOFLUORENE] , which is 956.2

Kindly note the recorded ALP for CC[C@@H](CO)NCCN[C@@H](CC)CO [ETHAMBUTOL] , which is 1271

Kindly note the recorded ALP for CCN(CC)N=O [N-NITROSODIETHYLAMINE] , which is 946.2

Kindly note the recorded ALP for O=C(O)COc1nn(Cc2ccccc2)c2ccccc12 [BENDAZAC] , which is 801.4

Kindly note the recorded ALP for CC(CCc1ccccc1)NCC(O)c1ccc(O)c(C(N)=O)c1 (configuration not stated) [LABETALOL] , which is 1394.4

----------
Organism: Rattus norvegicus
Assay protocol: Open TG-GATES - Regimen: Single
Assay type: toxicity, organism-based, Sprague-Dawley
Set-up: regimen Single, gender Male, age 6 weeks
Details: in vivo, po, 0 mg/kg, 24 h, tissue Plasma, route gavage, dose level Control
Parameter: LDH. Scope: all listed entries.
Give the value, in units of IU/L, as a plain number.

Kindly note the recorded LDH for CCN(CC)N=O , which is 190.6

Kindly note the recorded LDH for CC(=O)Nc1ccc2c(c1)Cc1ccccc1-2 , which is 192.8

----------
Species: Rattus norvegicus
Assay protocol: Open TG-GATES - Regimen: Single
Format: toxicity, organism-based, Sprague-Dawley
Set-up: regimen Single, gender Male, age 6 weeks
Details: in vivo, po, 0 mg/kg, 3 h, tissue Blood, route gavage, dose level Control
Parameter: Ret. Scope: all listed entries.
Give the value, in units of %, as a plain number.

{"columns": ["Molecule", "Ret, %"],
 "data": [
  ["O=C(O)COc1nn(Cc2ccccc2)c2ccccc12", 8.9],
  ["CC[C@@H](CO)NCCN[C@@H](CC)CO", 8.3],
  ["CC(C)Cc1ccc(C(C)C(=O)O)cc1 (configuration not stated)", 7.9],
  ["CC(=O)Nc1ccc2c(c1)Cc1ccccc1-2", 7.4],
  ["CC(=O)N1CCN(c2ccc(OCC3COC(Cn4ccnc4)(c4ccc(Cl)cc4Cl)O3)cc2)CC1 (configuration not stated)", 8.8]
]}

Kindly note the recorded Ret for CC(CCc1ccccc1)NCC(O)c1ccc(O)c(C(N)=O)c1 (configuration not stated) , which is 8

Kindly note the recorded Ret for CCN(CC)N=O , which is 7.2

----------
Organism: Rattus norvegicus
Assay protocol: Open TG-GATES - Regimen: Daily Repeat
Format: toxicity, organism-based, Sprague-Dawley
Design: regimen Daily Repeat, gender Male, age 6 weeks
Details: in vivo, po, 0 mg/kg, […], tissue Plasma, route gavage, dose level Control, time 7 day
Value type: PL (mg/dL)
Give the value, in units of mg/dL, as a plain number.

Some solved cases for reference:
{"columns": ["Molecule", "Value type", "Meas value"],
 "data": [
  ["O=C(O)COc1nn(Cc2ccccc2)c2ccccc12 [BENDAZAC]", "PL", 146.2],
  ["CC(=O)N1CCN(c2ccc(OCC3COC(Cn4ccnc4)(c4ccc(Cl)cc4Cl)O3)cc2)CC1 (stereo not drawn) [KETOCONAZOLE]", "PL", 156.8],
  ["CC(=O)Nc1ccc2c(c1)Cc1ccccc1-2 [2-ACETYLAMINOFLUORENE]", "PL", 136.4],
  ["CC(C)Cc1ccc(C(C)C(=O)O)cc1 (stereo not drawn) [IBUPROFEN]", "PL", 136.2]
]}

Kindly note the recorded PL for CCN(CC)N=O [N-NITROSODIETHYLAMINE] , which is 153

----------
Parameter: MCH. Scope: all listed entries.
Species: Rattus norvegicus
Assay protocol: Open TG-GATES - Regimen: Daily Repeat
Assay type: toxicity, organism-based, Sprague-Dawley
Parameters: regimen Daily Repeat, gender Male, age 6 weeks
Details: in vivo, po, 0 mg/kg, […], tissue Blood, route gavage, dose level Control, time 28 day
Give the value, in units of pg, as a plain number.

Some solved cases for reference:
{"columns": ["Compound", "Value type", "Result unit", "Meas value"],
 "data": [
  ["CC(N)=O [ACETAMIDE]", "MCH", "pg", 18.5],
  ["CC(=O)Nc1ccc2c(c1)Cc1ccccc1-2", "MCH", "pg", 19.8],
  ["CC(=O)N1CCN(c2ccc(OCC3COC(Cn4ccnc4)(c4ccc(Cl)cc4Cl)O3)cc2)CC1 (stereo not drawn)", "MCH", "pg", 19.1],
  ["CC[C@@H](CO)NCCN[C@@H](CC)CO", "MCH", "pg", 19.3],
  ["O=C(O)COc1nn(Cc2ccccc2)c2ccccc12", "MCH", "pg", 19.8],
  ["CC(C)Cc1ccc(C(C)C(=O)O)cc1 (stereo not drawn)", "MCH", "pg", 19.2],
  ["CCN(CC)N=O", "MCH", "pg", 20.4]
]}

Query compound follows.
Kindly note the recorded MCH for CC(CCc1ccccc1)NCC(O)c1ccc(O)c(C(N)=O)c1 (stereo not drawn) , which is 20.2

----------
Species on record: Rattus norvegicus
Assay protocol: Open TG-GATES - Regimen: Single
Assay type: toxicity, organism-based, Sprague-Dawley
Set-up: regimen Single, gender Male, age 6 weeks
Details: in vivo, po, 0 mg/kg, 9 h, tissue Kidney, route gavage, dose level Control
Value type: KIDNEY_L
Remember to quote the unit after the number.

Some solved cases for reference:
{"columns": ["Molecule", "Value type", "Meas value"],
 "data": [
  ["CC(=O)Nc1ccc2c(c1)Cc1ccccc1-2", "KIDNEY_L", "1 g"],
  ["CC(C)Cc1ccc(C(C)C(=O)O)cc1 (configuration not stated)", "KIDNEY_L", "0.9 g"],
  ["CC[C@@H](CO)NCCN[C@@H](CC)CO", "KIDNEY_L", "1 g"],
  ["CC(=O)N1CCN(c2ccc(OCC3COC(Cn4ccnc4)(c4ccc(Cl)cc4Cl)O3)cc2)CC1 (configuration not stated)", "KIDNEY_L", "1 g"]
]}

Kindly note the recorded KIDNEY_L for CC(CCc1ccccc1)NCC(O)c1ccc(O)c(C(N)=O)c1 (configuration not stated) , which is 0.9 g

Kindly note the recorded KIDNEY_L for O=C(O)COc1nn(Cc2ccccc2)c2ccccc12 , which is 1 g

Kindly note the recorded KIDNEY_L for CCN(CC)N=O , which is 1 g

----------
Species: Rattus norvegicus
Assay protocol: Open TG-GATES - Regimen: Single
Type: toxicity, organism-based, Sprague-Dawley
Design: regimen Single, gender Male, age 6 weeks
Details: in vivo, po, 0 mg/kg, 3 h, tissue Plasma, route gavage, dose level Control
Value type: BUN

{"columns": ["Compound", "BUN"],
 "data": [
  ["CC(CCc1ccccc1)NCC(O)c1ccc(O)c(C(N)=O)c1 (stereo unspecified) [LABETALOL]", "11.8 mg/dL"]
]}

Kindly note the recorded BUN for O=C(O)COc1nn(Cc2ccccc2)c2ccccc12 [BENDAZAC] , which is 12.4 mg/dL

Kindly note the recorded BUN for CC(=O)Nc1ccc2c(c1)Cc1ccccc1-2 [2-ACETYLAMINOFLUORENE] , which is 10.8 mg/dL

Kindly note the recorded BUN for CC[C@@H](CO)NCCN[C@@H](CC)CO [ETHAMBUTOL] , which is 14.2 mg/dL

Kindly note the recorded BUN for CCN(CC)N=O [N-NITROSODIETHYLAMINE] , which is 10 mg/dL

Kindly note the recorded BUN for CC(=O)N1CCN(c2ccc(OCC3COC(Cn4ccnc4)(c4ccc(Cl)cc4Cl)O3)cc2)CC1 (stereo unspecified) [KETOCONAZOLE] , which is 13.2 mg/dL
